System: DU-145
Experiment: NCI tumour cell line growth inhibition, 48 h
Calls of active or inactive are those of the source. Cut-off read from the data, not from the text of the source: active = GI50 up to about 1.1 µM and inactive = higher.
Thanks in advance; please answer with one of these: YES for active, NO for inactive

Record excerpt, results attached:
[
  {
    "Compound": "CC(C)C(N)(C(=O)O)c1ccccc1 (stereo unspecified)",
    "Assigned Class": "NO"
  },
  {
    "Compound": "O=c1[nH]c2ccc(C(F)(F)F)cc2nc1-c1ccccc1",
    "Assigned Class": "NO"
  },
  {
    "Compound": "COc1ccc(/C=C2\\Oc3cc(OC(C)=O)ccc3C2=O)cc1",
    "Assigned Class": "NO"
  },
  {
    "Compound": "O=C1C[C@H](c2ccccc2)C2(C(=O)c3ccccc3C2=O)[C@@H](c2ccccc2)C1",
    "Assigned Class": "NO"
  },
  {
    "Compound": "N#Cc1c(-c2ccc(Cl)cc2)c2c([nH]c1=O)-c1cc([N+](=O)[O-])ccc1CCC2",
    "Assigned Class": "NO"
  }
]

I would be grateful if you could indicate the recorded call for COc1cc2c(cc1OCCCCOc1cc3c(cc1OC)C(=O)N1CCC[C@H]1C(=O)N3)N=C[C@@H]1CCCN1C2=O . NO

I would be grateful if you could indicate the recorded call for COc1ccc(N2C(=O)C3c4[nH]c5cc(C)ccc5c4C4CCC(C(C)(C)C)CC4C3C2=O)cc1 (stereo unspecified) . NO

I would be grateful if you could indicate the recorded call for CC1(C)S[C@H](CN)N[C@H]1C(=O)OC(c1ccccc1)c1ccccc1 . NO

----------
Entries and their GI50
Tested on: HOP-92
Assay: NCI tumour cell line growth inhibition, 48 h
Calls of active or inactive are those of the source. Rule as the data show it: active = GI50 up to about 1.1 µM and inactive = higher.

[
  {
    "Compound": "C=C1C(=O)OC2CC(C)C3C4OC4C(O)C3(C)C(O)C12 (stereo not given)",
    "Measured Target": "HOP-92",
    "GI50": "23.6 µM (inactive)"
  },
  {
    "Compound": "CC(C)(C)/N=C\\N1CCC(C(c2ccccc2)c2ccccc2)CC1",
    "Measured Target": "HOP-92",
    "GI50": "31.7 µM (inactive)"
  },
  {
    "Compound": "CN(C)c1ccc(/C=C2\\CCc3ccccc3C2=O)cc1Br",
    "Measured Target": "HOP-92",
    "GI50": "62.7 µM (inactive)"
  }
]

# query: GI50 | item CCO/C=N/C1=C(C#N)C(c2ccc(Cl)cc2)c2c(-c3ccccc3)nn(-c3ccccc3)c2O1 (stereo not given) | system: HOP-92 5.42 µM (inactive)

# query: GI50 | item CC(C)OP(=O)(OC(C)C)/C(=N/Nc1ccccc1[N+](=O)[O-])NCCN/C(=N\Nc1ccccc1[N+](=O)[O-])P(=O)(OC(C)C)OC(C)C | system: HOP-92 32 µM (inactive)

----------
Tested on: NCI/ADR-RES
Test: NCI tumour cell line growth inhibition, 48 h
Calls of active or inactive are those of the source. No stated cut-off is given here; in the data, active = GI50 up to about 1.1 µM and inactive = higher.
Property Measured: GI50

# query: GI50 of entry CCOC(=O)C1C(C(C)C)C2(C#N)C(=N)OC1(C)C2(C#N)C#N (stereo not given) 45.5 µM (inactive)

# query: GI50 of entry C/C(=N\NC(N)=S)C(CN1CCCCC1)C(C1=C(O)c2ccccc2OC1)c1ccccc1 (stereo not given) > 100 µM (inactive)

# query: GI50 of entry O=c1[nH]c2ccc(C(F)(F)F)cc2nc1-c1ccccc1 > 100 µM (inactive)

# query: GI50 of entry O=C(O)CC1NCc2cc3ccccc3nc21 (stereo not given) > 100 µM (inactive)

# query: GI50 of entry O=C1OC(=O)C2C1C(c1ccccc1[N+](=O)[O-])C=C(c1ccco1)N2c1ccncc1 (stereo not given) 18.8 µM (inactive)

# query: GI50 of entry COc1ccc(OC)c2c1C(=O)C(Cl)=C(Cl)C2=O 2.58 µM (inactive)

# query: GI50 of entry CCOP(=O)(OCC)C(C)(CC)NC1=NC(C(F)(F)F)(C(F)(F)F)NC(=O)N1 (stereo not given) > 100 µM (inactive)

# query: GI50 of entry NCCNC(=O)CN(CC(=O)O)C1CCCCC1N(CC(=O)O)CC(=O)O (stereo not given) > 100 µM (inactive)

# query: GI50 of entry COc1cc(NC(C)=O)ccc1C(=O)NN1C(=O)/C(=C/c2ccco2)N=C1c1ccccc1 > 50 µM (inactive)

# query: GI50 of entry O=C(CC(NC(=O)C(F)(F)F)C(=O)O)OCc1ccccc1 (stereo not given) > 100 µM (inactive)

----------
Tested on: OVCAR-4
Assay: NCI tumour cell line growth inhibition, 48 h
Activity calls are given as the source filed them. Rule as the data show it: active = GI50 up to about 1.1 µM and inactive = higher. Starred links: 1 amine or outer side, 2 acyl side, 3 side chain; linkers in the order of their positions; H or OH if unused. Non-standard residues stand in square brackets, D forms with d. Residues, ends and D or L forms follow the SMILES beside them. *: point of attachment. X34 = CC(=O)N(C)SCC(N[*:1])C(=O)[*:2]; Cbz = O=C(OCc1ccccc1)*; Bn = c1ccc(C*)cc1; For = O=C*
Property Measured: GI50

Check out these entries, answers already filled in.
[
  {
    "Compound": "Cc1ncc(COP(=O)(O)O)c(C)c1O",
    "GI50": "> 100 µM (inactive)"
  },
  {
    "Compound": "O=C(OC1CCC(=C2SCCCS2)[C@H]1C1SCCCS1)c1ccccc1 (some centres not stated)",
    "GI50": "84.5 µM (inactive)"
  },
  {
    "Compound": "CC(C)(C)[Si](C)(C)OCC1OC(n2cnc3c(=O)[nH]cnc32)CC1O (configuration not stated)",
    "GI50": "> 100 µM (inactive)"
  },
  {
    "Compound": "N#Cc1sc2c(c1OC(=O)c1ccco1)c(=O)n(-c1ccccc1)c(=S)n2-c1ccccc1",
    "GI50": "23.6 µM (inactive)"
  },
  {
    "Compound": "CC(=O)N(C)SCC(NC(=O)C(Cc1ccccc1)NC(=O)OCc1ccccc1)C(=O)NC(Cc1ccccc1)C(=O)NC(Cc1cn(C=O)c2ccccc12)C(=O)NC(CCCCNC(=O)OCc1ccccc1)C(=O)NC(C(=O)NC(CSN(C)C(C)=O)C(=O)NC(C(N)=O)C(C)OCc1ccccc1)C(C)OCc1ccccc1 (configuration not stated) (Cbz-F[X34]FW(For)K(Cbz)T(Bn)[X34]T(Bn)-NH2; configuration not given here)",
    "GI50": "54.2 µM (inactive)"
  },
  {
    "Compound": "Cc1c2n(c(=O)[nH]c1=O)C1OC(CO)C(O2)C1N=[N+]=[N-] (configuration not stated)",
    "GI50": "> 100 µM (inactive)"
  }
]

Now take the following compound into account.
# query: GI50 of entry O=P(CN1CCOCC1)(c1ccccc1)c1ccccc1 > 100 µM (inactive)

----------
Tested on: MDA-MB-435
Assay: NCI tumour cell line growth inhibition, 48 h
Calls of active or inactive are those of the source. Cut-off read from the data, not from the text of the source: active = GI50 up to about 1.1 µM and inactive = higher.
Thanks in advance; please answer with one of these: 1 (active), 0 (inactive)

[
  {
    "Compound": "CCOP(=O)(OCC)C(C)(CC)NC1=NC(C(F)(F)F)(C(F)(F)F)NC(=O)N1 (stereo not given)",
    "Assigned Class": 0
  },
  {
    "Compound": "CCOC(=O)c1c(N2CCOCC2)[nH]c(=O)c(C(c2ccc(OC)cc2)c2c(O)c(C(=O)OCC)c(N3CCOCC3)[nH]c2=O)c1O",
    "Assigned Class": 0
  },
  {
    "Compound": "COc1cc(/C=C\\c2ccc(C)cc2)cc(OC)c1OC",
    "Assigned Class": 1
  },
  {
    "Compound": "CN(C)CCN(/C(=N/c1ccccc1)N1CCCC1)c1ccccc1",
    "Assigned Class": 0
  }
]

For the next question, use this compound.
I would be grateful if you could indicate the recorded call for CCOC(=O)C12CC(C)=C(C)CC1CCCc1ccccc12 (stereo not given) . 0

----------
Test system: U-251
Test: NCI tumour cell line growth inhibition, 48 h
Active and inactive are the calls of the source. Rule as the data show it: active = GI50 up to about 1.1 µM and inactive = higher.
Thanks in advance; please answer with one of these: active, inactive

Record excerpt, results attached:
[
  {
    "Molecule": "CN1CCC/C1=C1/C(=O)N(c2ccccc2)N=C1c1ccc[nH]1",
    "Measured Target": "U-251",
    "Assigned Class": "inactive"
  },
  {
    "Molecule": "CC(=O)NC1=C(NCCN(C)C)C(=O)c2ccccc2C1=O",
    "Measured Target": "U-251",
    "Assigned Class": "inactive"
  },
  {
    "Molecule": "O=C1c2ccccc2C(=O)c2sc(Nc3cccc(Cl)c3)nc21",
    "Measured Target": "U-251",
    "Assigned Class": "inactive"
  }
]

I would be grateful if you could indicate the recorded call for c1ccc2c(c1)CCN2CCc1c[nH]c2ccccc12 . inactive

I would be grateful if you could indicate the recorded call for O=C1c2cccc3cc4ccccc4c(c23)C(=O)N1CCNCCN1C(=O)c2cccc3cc4ccccc4c(c23)C1=O . active

I would be grateful if you could indicate the recorded call for COCN1C(=O)[C@@H]2CCCN2C(=O)c2cc(Cl)ccc21 . inactive

I would be grateful if you could indicate the recorded call for O=C1C(NCCc2cc(Cl)c(O)c(Cl)c2)=CC(=O)c2[nH]cnc21 . inactive
